# Tested on: MDA-MB-231 breast cancer cells
# Assay protocol: Proliferation inhibitory activity assay against MDA-MB-231 breast cancer cells
# Type: cell-based
# Measurement context: Homo sapiens, 72 hours, CellTiter Glo, relative IC50
pIC50: −log10 of the molar value.
Metric name: pIC50

Fc1ccc2[nH]c(CNc3cc(N4CCOCC4)nn4c(C(F)(F)F)cnc34)nc2c1 [Example 77] :: ≥ 7.30
FC(F)(F)c1cnc2c(NCc3cc4ncccn4n3)cc(N3CCOCC3)nn12 [Example 89] :: < 6.30
CC#Cc1cnc2c(NCc3nc4ccc(F)c(F)c4[nH]3)cc(-c3cnc(N)nc3)nn12 [Example 20] :: 6.30 to 7.30
Cn1cc(-n2cnc3c(NCc4nc5cc(Cl)c(Cl)cc5[nH]4)nc(N4CCOCC4)nc32)cn1 [SR-4835, reference compound] :: 6.30 to 7.30
OC1CC2CCC(C1)N2c1cc(NCc2nc3cc(Cl)c(Cl)cc3[nH]2)c2ncc(C(F)(F)F)n2n1 (stereo not shown) [Example 101] :: ≥ 7.30
O=C(O)C1CN(c2cc(NCc3nc4cc(Cl)c(Cl)cc4[nH]3)c3ncc(C(F)(F)F)n3n2)C1 [Example 64] :: < 6.30

Kindly consider the entry below.
**Query** For the molecule shown here, CN1CC2(C1)CN(c1cc(NCc3nc4cc(Cl)c(Cl)cc4[nH]3)c3ncc(C(F)(F)F)n3n1)C2 [Example 46] , give the reported pIC50.
**Result** ≥ 7.30

---

# Target of assay: CDK12 (Homo sapiens, UniProt Q9NYV4)
# Sequence (Q9NYV4 whole entry, species assumed): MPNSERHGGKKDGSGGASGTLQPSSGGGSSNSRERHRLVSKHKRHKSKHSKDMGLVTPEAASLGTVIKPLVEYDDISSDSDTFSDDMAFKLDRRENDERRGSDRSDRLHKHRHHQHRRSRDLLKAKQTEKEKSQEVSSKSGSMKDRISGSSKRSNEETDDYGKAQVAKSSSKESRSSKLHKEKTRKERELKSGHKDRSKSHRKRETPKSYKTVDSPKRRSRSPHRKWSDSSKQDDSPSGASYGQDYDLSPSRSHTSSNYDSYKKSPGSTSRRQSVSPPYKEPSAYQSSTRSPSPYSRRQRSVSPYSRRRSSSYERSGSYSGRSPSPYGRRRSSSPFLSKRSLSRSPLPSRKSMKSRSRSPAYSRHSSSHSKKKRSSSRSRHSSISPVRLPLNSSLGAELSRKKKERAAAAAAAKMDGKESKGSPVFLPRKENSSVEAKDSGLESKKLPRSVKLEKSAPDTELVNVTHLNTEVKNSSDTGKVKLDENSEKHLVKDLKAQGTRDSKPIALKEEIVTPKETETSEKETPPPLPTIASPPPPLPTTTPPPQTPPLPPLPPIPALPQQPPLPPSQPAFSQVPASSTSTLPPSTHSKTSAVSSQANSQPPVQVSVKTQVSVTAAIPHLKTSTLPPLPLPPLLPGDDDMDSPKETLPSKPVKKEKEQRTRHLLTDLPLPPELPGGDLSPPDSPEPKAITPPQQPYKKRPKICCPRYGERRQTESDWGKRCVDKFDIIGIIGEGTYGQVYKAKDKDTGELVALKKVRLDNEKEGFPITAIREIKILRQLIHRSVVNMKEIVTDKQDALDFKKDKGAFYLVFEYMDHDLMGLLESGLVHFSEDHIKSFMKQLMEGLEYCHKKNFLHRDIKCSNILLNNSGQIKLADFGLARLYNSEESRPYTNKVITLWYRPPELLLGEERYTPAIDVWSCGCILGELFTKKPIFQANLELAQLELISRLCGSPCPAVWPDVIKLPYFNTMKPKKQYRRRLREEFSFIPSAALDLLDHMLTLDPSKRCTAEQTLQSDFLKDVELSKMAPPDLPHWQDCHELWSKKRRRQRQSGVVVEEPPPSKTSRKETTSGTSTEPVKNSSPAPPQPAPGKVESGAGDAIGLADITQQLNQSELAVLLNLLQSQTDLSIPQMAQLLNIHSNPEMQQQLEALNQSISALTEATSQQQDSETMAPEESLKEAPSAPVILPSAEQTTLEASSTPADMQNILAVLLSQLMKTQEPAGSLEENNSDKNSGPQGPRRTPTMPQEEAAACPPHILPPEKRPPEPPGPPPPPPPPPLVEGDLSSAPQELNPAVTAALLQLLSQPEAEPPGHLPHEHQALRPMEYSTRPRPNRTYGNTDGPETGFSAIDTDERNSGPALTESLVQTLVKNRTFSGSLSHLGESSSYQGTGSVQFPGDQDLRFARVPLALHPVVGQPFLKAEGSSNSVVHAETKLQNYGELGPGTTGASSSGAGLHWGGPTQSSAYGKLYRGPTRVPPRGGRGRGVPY
# Sequence (O75909 whole entry partner, species assumed): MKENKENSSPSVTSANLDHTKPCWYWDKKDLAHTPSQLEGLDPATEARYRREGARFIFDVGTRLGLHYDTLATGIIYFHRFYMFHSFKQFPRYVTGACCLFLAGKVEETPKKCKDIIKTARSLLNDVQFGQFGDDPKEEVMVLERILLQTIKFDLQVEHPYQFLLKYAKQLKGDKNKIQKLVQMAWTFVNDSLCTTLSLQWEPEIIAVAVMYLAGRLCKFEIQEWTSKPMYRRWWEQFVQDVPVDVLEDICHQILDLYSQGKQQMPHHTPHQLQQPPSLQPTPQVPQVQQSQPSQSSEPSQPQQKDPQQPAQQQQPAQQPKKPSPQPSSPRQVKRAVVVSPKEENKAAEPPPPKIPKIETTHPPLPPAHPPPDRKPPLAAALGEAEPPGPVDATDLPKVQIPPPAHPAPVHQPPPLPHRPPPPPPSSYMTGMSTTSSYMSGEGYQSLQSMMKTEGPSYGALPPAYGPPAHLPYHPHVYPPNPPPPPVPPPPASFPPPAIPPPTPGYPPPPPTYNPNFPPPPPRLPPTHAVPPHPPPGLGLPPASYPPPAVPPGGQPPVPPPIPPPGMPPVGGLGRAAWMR
# Assay protocol: CDK12 kinase inhibitory activity assay (33P-ATP filter binding)
# Type: biochemical
# Measurement context: read-out: CDK12 IC50; kinase reaction 120 minutes, 33P-gamma-ATP
pIC50: −log10 of the molar value.
Metric name: pIC50

**Query** For the molecule shown here, FC(F)(F)c1cnc2c(NCc3nc4cc(Cl)c(Cl)cc4[nH]3)cc(N3CC4CC(C3)O4)nn12 , give the reported pIC50.
**Result** 6.30 to 7.00

---

# Target of assay: CDK12 (Homo sapiens)
# Assay protocol: CDK12 kinase inhibitory activity assay (33P-ATP filter binding)
# Type: biochemical
# Measurement context: kinase reaction 120 minutes, 33P-gamma-ATP; read-out: CDK12 IC50
Metric name: IC50

As a guide, the following entries are already answered.
O=C(CO)N1CCN(c2cc(NCc3nc4cc(Cl)c(Cl)cc4[nH]3)c3ncc(C(F)(F)F)n3n2)CC1 :: < 100 nM
Cc1cc2[nH]c(CNc3cc(N4CCOCC4)nn4c(C(F)(F)F)cnc34)nc2cc1Cl :: < 100 nM
O=C(CO)C1CCN(c2cc(NCc3nc4cc(Cl)c(Cl)cc4[nH]3)c3ncc(C(F)(F)F)n3n2)CC1 :: < 100 nM
CN1CCN(c2cc(NCc3nc4cc(F)c(F)cc4[nH]3)c3ncc(C(F)(F)F)n3n2)CC1 :: < 100 nM
Fc1ccc2nc(CNc3cc(N4C5CCC4CNC5)nn4c(C(F)(F)F)cnc34)[nH]c2c1F :: < 100 nM

**Query** For the compound shown here, FC(F)(F)c1cnc2c(NCc3cc4ccccn4n3)cc(N3CCOCC3)nn12 , give the reported IC50.
**Result** < 100 nM

**Query** For the compound shown here, O[C@H]1CCN(c2cc(NCc3nc4cc(Cl)c(Cl)cc4[nH]3)c3ncc(C(F)(F)F)n3n2)C1 , give the reported IC50.
**Result** 100 to 500 nM

**Query** For the compound shown here, FC(F)(F)c1cnc2c(NCc3nc4cc(Cl)c(Cl)cc4[nH]3)cc(N3CC4CC(C3)N4)nn12 , give the reported IC50.
**Result** < 100 nM

**Query** For the compound shown here, OC1(C2CN(c3cc(NCc4nc5cc(Cl)c(Cl)cc5[nH]4)c4ncc(C(F)(F)F)n4n3)C2)CC1 , give the reported IC50.
**Result** 100 to 500 nM

**Query** For the compound shown here, Cc1cc(C)n2cc(CNc3cc(N4CCOCC4)nn4c(C(F)(F)F)cnc34)nc2n1 , give the reported IC50.
**Result** < 100 nM

**Query** For the compound shown here, OC1CN(c2cc(NCc3nc4cc(Cl)c(Cl)cc4[nH]3)c3ncc(C(F)(F)F)n3n2)C1 , give the reported IC50.
**Result** < 100 nM

**Query** For the compound shown here, CCc1cnc2c(NCc3nc4ccc(F)c(F)c4[nH]3)cc(N3CCOCC3)nn12 , give the reported IC50.
**Result** 100 to 500 nM

**Query** For the compound shown here, CN1CC2CCC(C1)N2c1cc(NCc2nc3cc(Cl)c(Cl)cc3[nH]2)c2ncc(C(F)(F)F)n2n1 , give the reported IC50.
**Result** 100 to 500 nM

**Query** For the compound shown here, FC(F)(F)c1cnc2c(NCc3nc4cc(Cl)c(Cl)cc4[nH]3)cc(N3CC4CC(C4)C3)nn12 , give the reported IC50.
**Result** > 500 nM

**Query** For the compound shown here, Cc1cnc2c(NCc3nc4ccc(F)c(F)c4[nH]3)cc(N3CCOCC3)nn12 , give the reported IC50.
**Result** > 500 nM

**Query** For the compound shown here, FC(F)(F)c1cnc2c(NCc3nc4cc(Cl)c(Cl)cc4[nH]3)cc(N3C4CNCC3C4)nn12 , give the reported IC50.
**Result** 100 to 500 nM
